The measurements presented in this section are drawn from patent EP0743938B1.

target: COX-1 (Homo sapiens, UniProt P23219); details: read-out: COX I ID50 µM
Sequence (P23219 24-599): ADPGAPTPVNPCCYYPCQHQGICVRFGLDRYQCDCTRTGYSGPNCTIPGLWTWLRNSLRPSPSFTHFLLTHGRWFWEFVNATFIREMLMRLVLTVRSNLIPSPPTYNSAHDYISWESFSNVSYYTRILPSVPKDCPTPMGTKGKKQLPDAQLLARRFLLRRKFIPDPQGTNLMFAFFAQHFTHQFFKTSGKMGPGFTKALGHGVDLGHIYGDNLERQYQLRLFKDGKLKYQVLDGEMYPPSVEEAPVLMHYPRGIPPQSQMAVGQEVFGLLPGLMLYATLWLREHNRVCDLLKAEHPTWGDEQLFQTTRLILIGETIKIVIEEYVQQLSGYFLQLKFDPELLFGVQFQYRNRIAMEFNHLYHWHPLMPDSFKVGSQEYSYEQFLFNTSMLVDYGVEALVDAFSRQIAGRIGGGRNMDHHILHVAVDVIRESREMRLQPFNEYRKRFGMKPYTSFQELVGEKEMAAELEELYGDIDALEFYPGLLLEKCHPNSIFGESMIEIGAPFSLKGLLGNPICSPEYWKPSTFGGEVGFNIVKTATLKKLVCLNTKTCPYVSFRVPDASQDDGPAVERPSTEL
ASSAY_ENDPOINT: IC50 (µM)
Could you give me the number in µM? Just the number is fine.

What the record says about CS(=O)(=O)c1ccc(C2=C(c3ccc(F)c(Cl)c3)CC3(CC3)C2)cc1 : IC50 is 6
